# maps each entry to its Binding Long 1:10 PE (Fold blanc)
Biological target: T1, hRSV FTM-NN (membrane anchorless form of the Long fusion protein, 70 kDa) (human respiratory syncytial virus, …, UniProt P12568 26-524)
T1 construct: also called FTM-NN (Long); hRSV FTM-protein
Assay: ELISA on immobilized FTM-NN, periplasmic extract 1:10
Lab note: write values as number then unit, every time.

>>> result("Nanobody 1A2 (VHH, also called PMP1A2; PRSV1A2) VHH: EVQLVESGGGLVQAGGSLRLSCAASERTFSYYAMGWFRQAPGKEREFVATISRSGEWIYYKDAMKGRFTISRDNANNAVYLQMNSLQPEDTAIYYCAADSLGGFRSASDYYNTNTYAYWGQGTQVTVSS")
"4 fold blanc"

As a next step, examine the binder that follows.
// lookup Binding Long 1:10 PE (Fold blanc) for Nanobody 19C4 (VHH, also called PMP19C4; PRSV19C4) VHH: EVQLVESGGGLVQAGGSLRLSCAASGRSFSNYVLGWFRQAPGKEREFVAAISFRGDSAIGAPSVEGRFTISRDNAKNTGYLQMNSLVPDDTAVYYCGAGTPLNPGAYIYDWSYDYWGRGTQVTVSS
2.5 fold blanc
